Entries and their TGI values follow.
Test system: MCF7 breast
TEST: NCI tumour cell line growth inhibition, 48 h

Some solved cases for reference:
{"columns": ["CHEMICAL SMILES", "ASSAY TARGET", "RESULT"],
 "data": [
  ["CNc1ccc(N=Nc2cccc3ncccc23)cc1", "MCF7 breast", "> 100 µM"],
  ["O=C1Nc2ccc(Br)cc2C1=Nc1ccc(Cl)cc1", "MCF7 breast", "27.1 µM"],
  ["Cc1cc(C)c2nccc(NCCCN(C)C)c2c1[N+](=O)[O-]", "MCF7 breast", "> 100 µM"],
  ["O=C(/C(=N/Nc1cn[nH]c(=O)c1Cl)c1ccccc1)c1ccccc1", "MCF7 breast", "> 100 µM"]
]}

[Q] Name the recorded TGI of the item COc1ccc(-c2oc3cc(OC)ccc3c(=O)c2O)cc1 in your answer.
[A] > 31.6 µM

[Q] Respond only with TGI recorded for Cc1cc(C(=O)Nc2cc(Nc3ncccc3-c3ncnc4nc[nH]c34)ccc2F)cc(C(C)(C)C#N)c1
[A] > 100 µM

[Q] Specify TGI for O=C(O)CCSc1ncnc2nc[nH]c12 and stop.
[A] > 100 µM

[Q] Give me measured TGI, please, for this molecule: CC(C)(C)C#CI1OC(=O)c2ccccc21
[A] 15.4 µM

[Q] Name the recorded TGI of the molecule listed here: COc1cc(/C=C2/C(=O)N(C(=O)c3ccccc3O)N=C2C)ccc1O
[A] > 100 µM

[Q] Give TGI for COc1ccc(-c2nn(-c3cccc(Cl)c3)cc2-c2cc(-c3cccs3)no2)cc1
[A] 16.9 µM
